- target: T1, PKC-βII (purified isoform) (Homo sapiens (Human), UniProt P05771 2-621)
- T1 construct: also called PKC-beta II; PKC beta 2
- T1 sequence (P05771 other isoform, or with tags, fused parts or gaps limits assumed): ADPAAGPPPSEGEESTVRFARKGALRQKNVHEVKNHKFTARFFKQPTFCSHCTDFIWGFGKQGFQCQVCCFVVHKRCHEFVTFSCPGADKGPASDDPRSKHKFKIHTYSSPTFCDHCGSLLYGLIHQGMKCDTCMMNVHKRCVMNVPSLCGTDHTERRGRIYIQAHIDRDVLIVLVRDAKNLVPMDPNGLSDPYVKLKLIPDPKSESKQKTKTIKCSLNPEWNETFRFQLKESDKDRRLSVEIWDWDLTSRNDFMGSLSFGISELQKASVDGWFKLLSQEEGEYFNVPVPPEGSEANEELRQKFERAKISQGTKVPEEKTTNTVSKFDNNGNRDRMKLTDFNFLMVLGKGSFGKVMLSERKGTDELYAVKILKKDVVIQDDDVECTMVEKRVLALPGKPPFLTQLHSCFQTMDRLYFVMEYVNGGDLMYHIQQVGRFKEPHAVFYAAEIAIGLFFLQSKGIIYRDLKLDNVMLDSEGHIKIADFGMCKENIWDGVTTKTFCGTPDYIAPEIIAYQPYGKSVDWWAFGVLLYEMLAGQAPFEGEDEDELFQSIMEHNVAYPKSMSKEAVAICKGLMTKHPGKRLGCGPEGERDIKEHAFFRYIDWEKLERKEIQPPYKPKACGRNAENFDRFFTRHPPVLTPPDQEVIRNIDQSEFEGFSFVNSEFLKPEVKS
- assay_summary: competitive ELISA, coated purified PKC-βII, vs anti-PKC βII (SC-210); PRE 200 µM
Each item that follows carries a reported relative binding capacity (100-%n, DMSO subtracted).
State the value with its unit after it.

>  <binder>
Ac-RDAQNLIGISI-NH2 (also called peptide PRE 11) [PRE 11]

>  <recorded_result>
6.4%

$$$$

The binder listed as RRKKGGKDFVVKR (also called peptide PRE 1; peptide recognition element 1) [PRE 1] has a reported relative binding capacity (100-%n, DMSO subtracted) of 0%

The binder listed as Ac-KDAQNLI-NH2 (Ac-KDAQNLI-NH2; also called peptide PRE 12) [PRE 12] has a reported relative binding capacity (100-%n, DMSO subtracted) of 0%
